Reference source for all entries: PubChem BioAssay

- study_target: Left-right determination factor 2 (Homo sapiens) (UniProt O00292)
- Sequence (O00292 whole entry, looked up): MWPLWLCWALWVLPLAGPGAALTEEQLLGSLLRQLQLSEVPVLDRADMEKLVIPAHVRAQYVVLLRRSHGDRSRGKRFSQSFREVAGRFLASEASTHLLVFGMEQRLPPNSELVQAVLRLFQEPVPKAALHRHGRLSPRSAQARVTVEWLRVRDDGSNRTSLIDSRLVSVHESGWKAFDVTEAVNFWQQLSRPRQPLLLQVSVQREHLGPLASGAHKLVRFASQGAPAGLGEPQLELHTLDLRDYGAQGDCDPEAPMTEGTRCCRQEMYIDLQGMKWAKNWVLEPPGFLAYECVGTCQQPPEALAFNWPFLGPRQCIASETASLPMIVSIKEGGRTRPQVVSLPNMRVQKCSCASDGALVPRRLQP
- assay_procedure: LEFTY2 binders on small-molecule microarrays, primary screen, biochemical, small-molecule microarray, 635 nm fluorescence scan (AID 1110)
- condition_summary: LEFTY2 binding, higher = more signal
metric_name: composite z-score
Lab note: write the figure by itself, no unit.

Examples from the recorded data:
{"columns": ["molecule", "study_target", "composite z-score"],
 "data": [
  ["O=C1C2C=CC(C(O)c3ccc(-c4ccccc4)s3)N(n3cnnc3)C2C(=O)N1Cc1ccccc1 (centres undefined)", "Left-right determination factor 2 (Homo sapiens) (UniProt O00292)", -0.253],
  ["[N-]=[N+]=NCc1ccccc1[C@@H]1OC(c2ccc(OCCCO)cc2)=N[C@]1(Cc1ccccc1N=[N+]=[N-])C(=O)NCc1ccccc1", "Left-right determination factor 2 (Homo sapiens) (UniProt O00292)", 0.374],
  ["C=CCC(OC(C)=O)[C@@H]1[C@@H](N(Cc2cccc3ccccc23)C(=O)c2ccc(C)cc2)c2cc(OCCCO)ccc2N1C(=O)Cc1ccc(OC)cc1 (some centres undefined)", "Left-right determination factor 2 (Homo sapiens) (UniProt O00292)", -0.248]
]}

Req: Suppose we examine the molecule `CCCC[C@H]1OB(O)C[C@H]2C1=C(C)C[C@H]1C(=O)N(Cc3ccccc3)C(=O)[C@H]12` ; what composite z-score value has been reported?
Resp: 0.369

---

Parameter composite z-score: see the listing below.
- study_target: Pro-neuregulin-1, membrane-bound isoform (Homo sapiens)
- assay_procedure: NRG1 binders on small-molecule microarrays, primary screen, psychiatric disease protein project, biochemical, small-molecule microarray, fluorescence 635/667 (AID 1075);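 note: score combines 667 nm spot fluorescence with signal to noise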
- condition_summary: NRG1 binding, 635 nm fluorescence, higher = more signal
Lab note: write the figure by itself, no unit.

Examples from the recorded data:
{"columns": ["compound", "composite z-score"],
 "data": [
  ["Cc1ccc(S[C@]2(C(=O)NCc3ccccc3)CC(=O)N(Cc3ccccc3Cl)[C@@H]2c2ccc(CO)cc2I)cc1", 0.288],
  ["COC(=O)c1ccc(C(O)C2C=CC3C(=O)N(C)C(=O)C3N2NC(=O)OC(C)(C)C)o1 (configuration not stated)", 1.34],
  ["CCCN1C(=O)[C@@]2(CCC(=O)OC(C)(C)C)N=C(c3ccc(OCCCO)cc3)O[C@H]2c2ccccc21", 0.0163],
  ["CC(C)NC(=O)[C@@]1(Cc2ccccc2I)c2ccccc2C(=O)N(Cc2ccccc2)[C@H]1c1ccc(CO)cc1", 1.38],
  ["COCCOC(=O)N1C(=O)[C@@]2(c3cc(C#CCC(C(=O)OC)C(=O)OC)ccc31)[C@H](c1ccccc1OCCO)N1[C@H](c3ccccc3)[C@H](c3ccccc3)OC(=O)[C@H]1[C@@H]2C(=O)N1CCc2cc(OC)c(OC)cc2C1", 1.09]
]}

Req: Suppose we examine the compound `COCCOC(=O)N1C(=O)[C@@]2(c3cc(C#CC4=CCCCC4)ccc31)[C@H](C(=O)NC[C@H](O)c1ccccc1)[C@H]1C(=O)O[C@H](c3ccccc3)[C@H](c3ccccc3)N1[C@@H]2c1ccc(O)cc1` ; what composite z-score value has been reported?
Resp: 0.996

Req: Suppose we examine the compound `COC(=O)C[C@H]1O[C@]2(C(=O)N(Cc3ccccc3)c3ccc(NC(C)=O)cc32)[C@@H](C)[C@@H]1[Si](C)(C)c1ccc(OC)cc1` ; what composite z-score value has been reported?
Resp: 0.264

Req: Suppose we examine the compound O=C1OCCC=C[C@H]2OC34C=CCN(Cc5ccccc5)C(=O)[C@H]3N(CCCCCCO)C(=O)[C@@H]4C12 (some centres not stated) ; what composite z-score value has been reported?
Resp: 1.88

Req: Suppose we examine the compound `COC(=O)C(CC#Cc1ccc2c(c1)[C@]1(C(=O)N2)[C@H](C(=O)NC[C@H](O)c2ccccc2)[C@H]2C(=O)O[C@H](c3ccccc3)[C@H](c3ccccc3)N2[C@@H]1c1ccc(OCCO)cc1)C(=O)OC` ; what composite z-score value has been reported?
Resp: 1.41

Req: Suppose we examine the compound `CC(C)CNC(=O)[C@@]1(c2ccc([N+](=O)[O-])cc2)CC(=O)N(CC23CC4CC(CC(C4)C2)C3)[C@@H]1c1ccc(CO)cc1I` ; what composite z-score value has been reported?
Resp: 0.168

Req: Suppose we examine the compound `O=C1O[C@H](c2ccccc2)[C@H](c2ccccc2)N2[C@H]1[C@@H](C(=O)Nc1nc3ccccc3s1)[C@]1(C(=O)Nc3ccccc31)[C@H]2c1ccc(O)cc1` ; what composite z-score value has been reported?
Resp: 1.43

Req: Suppose we examine the compound `CC(C)NC(=O)[C@@H]1c2ccccc2C(=O)N(Cc2ccccc2)[C@H]1c1ccc(CO)cc1` ; what composite z-score value has been reported?
Resp: 1.06

Req: Suppose we examine the compound `CC(=O)Nc1cc(Br)ccc1C(=O)O` ; what composite z-score value has been reported?
Resp: 0.541

Req: Suppose we examine the compound `CCCCC=C[C@@H](NC(=O)c1ccc(C(=O)OC)cc1)c1ccccc1` ; what composite z-score value has been reported?
Resp: 0.919

Req: Suppose we examine the compound `O=C/C=C/c1ccc(Cl)cc1` ; what composite z-score value has been reported?
Resp: -0.476

Req: Suppose we examine the compound `COCCOC(=O)N1C(=O)[C@@]2(c3cc(C#CC4=CCCCC4)ccc31)[C@H](C(=O)N1CCc3cc(OC)c(OC)cc3C1)[C@H]1C(=O)O[C@H](c3ccccc3)[C@H](c3ccccc3)N1[C@@H]2c1ccccc1OCCO` ; what composite z-score value has been reported?
Resp: -0.442

Req: Suppose we examine the compound `CCOC(=O)C1=CC[C@@H](c2ccccc2)N(S(=O)(=O)c2ccc(C)cc2)[C@H]1C(=O)OCC` ; what composite z-score value has been reported?
Resp: -0.196
